- target_or_test_system: human 17β-HSD1 (Homo sapiens, UniProt P14061)
- Construct: In the cell free assay, the placental cytosolic enzyme was used; from tissue; host or cells: human placenta, cytosolic fraction, ammonium sulfate precipitate
- Sequence (P14061 whole entry): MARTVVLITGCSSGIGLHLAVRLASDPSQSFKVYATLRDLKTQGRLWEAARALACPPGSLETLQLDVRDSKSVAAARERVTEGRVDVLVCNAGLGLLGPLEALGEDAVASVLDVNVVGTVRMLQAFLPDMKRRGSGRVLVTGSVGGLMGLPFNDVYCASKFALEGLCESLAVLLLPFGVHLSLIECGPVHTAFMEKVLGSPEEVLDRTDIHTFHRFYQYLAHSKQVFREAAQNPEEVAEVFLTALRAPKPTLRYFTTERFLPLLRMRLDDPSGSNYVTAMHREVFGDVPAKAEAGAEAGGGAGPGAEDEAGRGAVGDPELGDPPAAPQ
- experimental_details: 17β-HSD1 cell free assay (placental cytosolic enzyme, [3H]E1 to E2, HPLC radiodetection)
- Assay type: biochemical
- particulars: inhibitor 1 µM; human placenta cytosolic fraction, [3H]E1 + E1 500 nM, NADH 500 µM; less than 10% = inactive; ni = no inhibition; read-out: 17β-HSD1 % inhib. (1µM)
Classification field: 1 = inhibition at 1 µM at or over 30%; -1 = inhibition at 1 µM under 30%.

Answered cases to consult:
O=C(Nc1nc2ccc(O)cc2s1)c1cccc(O)c1	1
Cc1nc(C(=O)c2cccc(O)c2)sc1CCO	1
O=C(c1cccc(O)c1)c1nc2ccc(O)cc2s1	1
O=C(c1ccc(O)cc1)c1nc2ccc(O)cc2s1	1
Oc1cccc(NC(=S)Nc2nc3ccc(O)cc3s2)c1	1
CSC(c1ccc(O)cc1)c1nc2ccc(O)cc2s1 (centres unmarked)	-1
COc1ccc(C(=O)c2nc3ccc(O)cc3s2)cc1	-1
O=C(c1cccc(O)c1)c1nc2ccccc2s1	1

Exam item: Assess whether reported inhibition at 1 µM for COC(c1cccc(O)c1)c1nc2ccc(O)cc2s1 (centres unmarked) sits at 30% or higher.
Marked response: -1

Exam item: Does "Oc1ccc(Cc2nc3ccc(O)cc3s2)cc1" have a reported inhibition at 1 µM of at least 30%?
Marked response: -1

Exam item: I'd appreciate it if you could say whether Oc1cccc(C(O)c2nc3ccc(O)cc3s2)c1 (centres unmarked) has inhibition at 1 µM at least equal to 30%.
Marked response: -1

Exam item: # bool: inhibition at 1 µM of "O=C(Nc1nc2ccc(O)cc2s1)c1ccc(O)cc1" >= 30%
Marked response: 1

Exam item: // inclusive: inhibition at 1 µM at least 30%? input: "COc1ccc2nc(C(=O)Nc3cccc(O)c3)sc2c1"
Marked response: 1

Exam item: In plain terms: is recorded inhibition at 1 µM at least 30% for "O=C(Nc1cccc(O)c1)c1nc2ccc(O)cc2s1" ?
Marked response: 1
